The measured values listed here are drawn from patent US20230135524A1.

Assay: Pharmacokinetics in non-tumor bearing BALB/C mice, IV and PO
Format: in vivo
Settings: mouse, plasma, IV, 1 mg/kg
observation type: Cmax (ng/mL)

molecule: CC1(C)C(=O)N(c2cnc(C#N)c(C(F)(F)F)c2)C(=S)N1Cc1ccc(-c2c[nH]nn2)cc1 [Compound 15n]
units label: ng/mL
measured: 937

---

Recorded measurements of IC50, one per entry
Target: Progesterone Receptor B (Homo sapiens, UniProt P06401)
Sequence (P06401 whole entry): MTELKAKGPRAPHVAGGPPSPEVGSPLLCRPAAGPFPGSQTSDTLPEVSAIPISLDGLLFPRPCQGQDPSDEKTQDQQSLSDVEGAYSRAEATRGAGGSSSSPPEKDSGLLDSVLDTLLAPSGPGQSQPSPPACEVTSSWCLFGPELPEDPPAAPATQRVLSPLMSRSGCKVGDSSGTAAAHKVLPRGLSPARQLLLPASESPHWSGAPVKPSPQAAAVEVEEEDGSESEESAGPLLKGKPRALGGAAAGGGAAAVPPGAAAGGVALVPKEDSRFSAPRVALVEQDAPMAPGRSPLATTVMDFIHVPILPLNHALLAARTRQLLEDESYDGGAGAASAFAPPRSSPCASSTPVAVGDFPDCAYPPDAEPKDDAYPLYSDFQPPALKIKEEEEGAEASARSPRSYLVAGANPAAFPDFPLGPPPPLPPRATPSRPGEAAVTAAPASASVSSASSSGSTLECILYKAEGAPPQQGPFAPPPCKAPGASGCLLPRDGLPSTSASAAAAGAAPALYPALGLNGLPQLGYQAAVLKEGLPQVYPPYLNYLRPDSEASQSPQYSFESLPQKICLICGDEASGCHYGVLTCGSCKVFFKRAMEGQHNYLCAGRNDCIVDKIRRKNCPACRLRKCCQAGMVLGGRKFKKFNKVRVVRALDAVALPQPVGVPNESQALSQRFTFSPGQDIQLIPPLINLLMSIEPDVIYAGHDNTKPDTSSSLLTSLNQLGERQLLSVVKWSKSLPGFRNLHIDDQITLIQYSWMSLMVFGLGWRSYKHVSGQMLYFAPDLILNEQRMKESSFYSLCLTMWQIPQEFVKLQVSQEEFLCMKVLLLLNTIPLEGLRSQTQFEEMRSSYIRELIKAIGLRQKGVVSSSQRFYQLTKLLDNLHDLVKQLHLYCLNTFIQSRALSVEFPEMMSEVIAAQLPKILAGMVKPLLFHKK
Experiment: Radioligand competition binding, [3H] progesterone
Settings: competition with 0.5 nM [3H] progesterone

compound: CC1(C)C(=O)N(c2ccc(C#N)c(C(F)(F)F)c2)C(=S)N1Cc1ccc(-c2c[nH]nn2)cc1 [Compound 15a]
IC50: 103 nM

compound: CC1(C)C(=O)N(c2ccc(C#N)c(C(F)(F)F)c2)C(=S)N1Cc1ccc(-c2c[nH]nn2)cc1F [Compound 19d]
IC50: 76.3 nM

---

Test system: LNCaP
Experiment: IncuCyte % confluence cell growth inhibition, LNCaP
Assay type: cell-based
Conditions: Homo sapiens, read-out: IC50 values (μM), LNCaP
Lab note - cut at 40 µM for IC50: criterion met if strictly below, criterion not met if not.

molecule: CC1(C)C(=O)N(c2ccc(C#N)c(C(F)(F)F)c2)C(=O)N1Cc1ccc(-c2c[nH]nn2)c(F)c1 [Compound 19b]
assayed target: LNCaP
assigned label: criterion not met
--
molecule: CC1(C)C(=O)N(c2ccc(C#N)c(C(F)(F)F)c2)C(=S)N1Cc1ccc(-c2c[nH]nn2)cc1F [Compound 19d]
assayed target: LNCaP
assigned label: criterion met
--
molecule: CC1(C)C(=O)N(c2ccc(C#N)c(C(F)(F)F)c2)C(=S)N1Cc1ccc(-c2c[nH]nn2)c(F)c1 [Compound 19c]
assayed target: LNCaP
assigned label: criterion met
--
molecule: CC1(C)C(=O)N(c2ccc(C#N)c(C(F)(F)F)c2)C(=S)N1Cc1ccc(-c2c[nH]nn2)cc1 [Compound 15a]
assayed target: LNCaP
assigned label: criterion met
--
molecule: CC1(C)C(=O)N(c2ccc(C#N)c(C(F)(F)F)c2)C(=O)N1Cc1ccc(-c2c[nH]nn2)cc1 [Compound 14a]
assayed target: LNCaP
assigned label: criterion not met
--
molecule: CC1(C)C(=O)N(c2ccc(C#N)c(C(F)(F)F)c2)C(=S)N1c1ccc(-c2c[nH]nn2)cc1 [Compound 16a]
assayed target: LNCaP
assigned label: criterion met

---

Experiment: Pharmacokinetics in non-tumor bearing BALB/C mice, IV and PO
Type: in vivo
Settings: mouse, plasma, IV, 1 mg/kg

molecule: CC1(C)C(=O)N(c2cnc(C#N)c(C(F)(F)F)c2)C(=S)N1Cc1ccc(-c2c[nH]nn2)cc1 [Compound 15n]
units label: ng·h/mL
AUC(0-t): 6260

---

Test system: DU145
Assay: IncuCyte % confluence cell growth inhibition, DU145
Assay type: cell-based
Settings: Homo sapiens, DU-145, read-out: IC50 values (μM), DU145
Protocol: Images were then analyzed to discern the % confluence of cells in each well. IC50 values were calculated from dose response curves of the % cell growth inhibition relative to DMSO control at the same time point per each cell line.
molecules and their reported IC50
observation type: IC50

molecule: CC1(C)C(=O)N(c2ccc(C#N)c(C(F)(F)F)c2)C(=S)N1Cc1ccc(-c2c[nH]nn2)cc1F [Compound 19d]
observation type: IC50
measured: 53.6 µM
--
molecule: CC1(C)C(=O)N(c2ccc(C#N)c(C(F)(F)F)c2)C(=O)N1Cc1ccc(-c2c[nH]nn2)c(F)c1 [Compound 19b]
observation type: IC50
measured: 65 µM
--
molecule: CC1(C)C(=O)N(c2ccc(C#N)c(C(F)(F)F)c2)C(=S)N1Cc1ccc(-c2c[nH]nn2)c(F)c1 [Compound 19c]
observation type: IC50
measured: 114 µM

---

System: PC3
Test: IncuCyte % confluence cell growth inhibition, PC3
Type: cell-based
Conditions: Homo sapiens, PC-3, read-out: IC50 values (μM), PC3
# IC50 listing for each entry below

molecule: CC1(C)C(=O)N(c2ccc(C#N)c(C(F)(F)F)c2)C(=S)N1Cc1ccc(-c2c[nH]nn2)cc1 [Compound 15a]
IC50 / µM: 59.8

molecule: CC1(C)C(=O)N(c2ccc(C#N)c(C(F)(F)F)c2)C(=S)N1Cc1ccc(-c2c[nH]nn2)c(F)c1 [Compound 19c]
IC50 / µM: 59.9

molecule: CC1(C)C(=O)N(c2ccc(C#N)c(C(F)(F)F)c2)C(=S)N1Cc1ccc(-c2c[nH]nn2)cc1F [Compound 19d]
IC50 / µM: 44.8

molecule: CC1(C)C(=O)N(c2ccc(C#N)c(C(F)(F)F)c2)C(=O)N1Cc1ccc(-c2c[nH]nn2)cc1F [Compound 19a]
IC50 / µM: 63.4

molecule: CC1(C)C(=O)N(c2ccc(C#N)c(C(F)(F)F)c2)C(=O)N1Cc1ccc(-c2c[nH]nn2)cc1 [Compound 14a]
IC50 / µM: 68.5

molecule: CC1(C)C(=O)N(c2ccc(C#N)c(C(F)(F)F)c2)C(=O)N1Cc1ccc(-c2c[nH]nn2)c(F)c1 [Compound 19b]
IC50 / µM: 60.9

molecule: CC1(C)C(=O)N(c2ccc(C#N)c(C(F)(F)F)c2)C(=S)N1c1ccc(-c2c[nH]nn2)cc1 [Compound 16a]
IC50 / µM: 49.2

---

Reported IC50 is given for each of the following molecules.
Molecular target: UniProt P03372
Sequence (P03372 whole entry): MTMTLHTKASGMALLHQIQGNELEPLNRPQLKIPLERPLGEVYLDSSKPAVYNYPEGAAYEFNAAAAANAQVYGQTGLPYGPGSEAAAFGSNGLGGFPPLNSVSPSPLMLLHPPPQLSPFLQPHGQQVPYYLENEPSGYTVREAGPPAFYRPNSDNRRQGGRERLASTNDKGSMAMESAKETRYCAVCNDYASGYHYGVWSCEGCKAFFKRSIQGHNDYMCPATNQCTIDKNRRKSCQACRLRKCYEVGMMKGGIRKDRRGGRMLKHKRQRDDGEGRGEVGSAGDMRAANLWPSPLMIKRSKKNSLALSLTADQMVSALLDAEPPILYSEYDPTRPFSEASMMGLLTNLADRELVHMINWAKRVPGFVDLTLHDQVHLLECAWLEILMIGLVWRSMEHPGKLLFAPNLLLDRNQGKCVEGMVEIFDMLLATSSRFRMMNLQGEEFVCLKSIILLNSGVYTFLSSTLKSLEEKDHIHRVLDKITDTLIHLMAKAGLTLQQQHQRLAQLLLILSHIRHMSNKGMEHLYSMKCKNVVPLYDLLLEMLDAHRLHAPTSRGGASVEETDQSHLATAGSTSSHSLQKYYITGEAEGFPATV
Test: Radioligand competition binding, [3H] estradiol
Settings: competition with 0.5 nM [3H] estradiol

molecule: CC1(C)C(=O)N(c2ccc(C#N)c(C(F)(F)F)c2)C(=S)N1Cc1ccc(-c2c[nH]nn2)cc1F [Compound 19d]
IC50: > 10000 nM
//
molecule: CC1(C)C(=O)N(c2ccc(C#N)c(C(F)(F)F)c2)C(=S)N1Cc1ccc(-c2c[nH]nn2)cc1 [Compound 15a]
IC50: > 10000 nM

---

Assay: Pharmacokinetics in non-tumor bearing BALB/C mice, IV and PO
Type: in vivo
Details: mouse, plasma, PO, 20 mg/kg
half-life overview

compound: CC1(C)C(=O)N(c2cnc(C#N)c(C(F)(F)F)c2)C(=S)N1Cc1ccc(-c2c[nH]nn2)cc1 [Compound 15n]
half-life: 22.3 h

compound: CC1(C)C(=O)N(c2ccc(C#N)c(C(F)(F)F)c2)C(=S)N1Cc1ccc(-c2c[nH]nn2)cc1 [Compound 15a]
half-life: 20.6 h
